test target: human S1R (Homo sapiens)
Sequence (Q99720 whole entry): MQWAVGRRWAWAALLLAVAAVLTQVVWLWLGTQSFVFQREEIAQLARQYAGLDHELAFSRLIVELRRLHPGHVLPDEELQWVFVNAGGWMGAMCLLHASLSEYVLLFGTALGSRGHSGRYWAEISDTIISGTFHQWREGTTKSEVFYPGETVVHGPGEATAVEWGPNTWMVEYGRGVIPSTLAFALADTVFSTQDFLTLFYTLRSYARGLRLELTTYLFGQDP
assay notes: Radioligand competition binding with [3H]-
experimental readout: pKi
// pKi: -log10(molar conc.)

Some solved entries appear below for comparison.
>>> recorded_number("CCN(CC)CCOCCOC(=O)C(CC)(CC)c1ccccc1")
7.60
>>> recorded_number("CCN(CC)CCOCCOC(=O)C1(c2ccccc2)CCCC1")
7.70

Now look at this entry.
### Prompt Given CCC(C(=O)OCCOCCN(CC)CC)c1ccccc1 (stereo not drawn) [Butamirate] , state its recorded pKi.
### Response 7.76
